test_protocol: chemical genetic growth profiling, strain panel (AID 1159580);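 further: tested at 20 µM; growth read once vehicle control cultures reached saturation at 30 °C; 1 = growth at the plate median or of vehicle wells; lower values mean less growth of the strain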
measurement_setup: S. cerevisiae deletion strains, growth OD, locus YML016C, strain PPZ1, hits give low values
Screen size: about 5,500 compounds; about 2,000 (36%) were called active. Not shown: some 18% with an inconclusive outcome. This is one part of the list.
property: normalized growth
Numbers only.

O=C(Cc1cccs1)NC1C(=O)N2C(C(=O)[O-])=C(C[n+]3ccccc3)CSC12 (stereo not given) :: 0.999
NC(=O)c1ncn([C@@H]2O[C@H](CO)[C@@H](O)[C@H]2O)n1 :: 1
CCCCCCCCCCCC1=C(O)C(=O)C=C(O)C1=O :: 0.991
CCOCN(C(=O)CCl)c1c(C)cccc1CC :: 0.992
COc1cc(OC)c2ccc(=O)oc2c1 :: 1
COc1cc2occc2c2oc(=O)ccc12 :: 0.956

Provide the reported normalized growth of each entry below, same order.
1. CCN1C[C@]2(C)CC[C@H](OC)[C@]34C2[C@H](O)[C@]2(OCO[C@@]25C[C@H](OC)[C@H]2C[C@]3(O)C5[C@H]2O)C14
2. C[C@]12CCC3c4ccc(O)cc4CCC3C1CC[C@@H]2O (stereo not given in full)
3. CNC(=O)Oc1cccc2c1OC(C)(C)O2
4. CC1(C)C(=O)C=C[C@@]2(C)C1CC(=O)[C@]1(C)C2CC[C@@]2(C)[C@H](c3ccoc3)OC(=O)[C@H]3O[C@]321 (stereo not given in full)
5. C=C[C@H]1CN2CC[C@H]1C[C@@H]2[C@@H](OC(=O)OCC)c1ccnc2ccc(OC)cc12

# output
1: 1; 2: 1.01; 3: 1.02; 4: 0.984; 5: 1.01

Provide the reported normalized growth of each entry below, same order.
1. COc1ccc(-c2cc(=O)c3c(O)cc(O[C@H]4O[C@H](CO[C@@H]5O[C@@H](C)[C@H](O)[C@@H](O)[C@H]5O)[C@@H](O)[C@H](O)[C@H]4O)cc3o2)cc1
2. CC1(C)C2CC(=O)[C@]3(C)C(CC[C@@]4(C)[C@H](c5ccoc5)OC(=O)C5OC543)[C@@]2(C)[C@@H](O)C[C@H]1O (stereo not given in full)
3. C=C(C)[C@H]1COc2cc3oc(=O)ccc3cc2O1
4. CC(C)N(CCC(C(N)=O)(c1ccccc1)c1ccccn1)C(C)C (stereo not given)
5. NC(N)=NC(=O)c1nc(Cl)c(N2CCCCCC2)nc1N

# output
1: 1; 2: 1.01; 3: 0.548; 4: 0.997; 5: 1.01

Provide the reported normalized growth of each entry below, same order.
1. CCC(N)C(O)c1ccc(O)c(O)c1 (stereo not given)
2. CC1=CC(=O)C2=C(C)CC[C@@H]3[C@H](OC(=O)[C@H]3C)[C@@H]12

# output
1. 1.01
2. 0.99

Provide the reported normalized growth of each entry below, same order.
1. COc1cc(O)c2c(=O)c(O)c(-c3ccc(O)c(O)c3)oc2c1
2. CC1(C)C2CC(=O)[C@]3(C)C(CC[C@@]4(C)[C@H](c5ccoc5)OC(=O)[C@H]5O[C@]543)[C@@]2(C)C(=O)C[C@H]1O (stereo not given in full)
3. Oc1ccc2c(c1)OCC1(O)Cc3cc(O)c(O)cc3C21 (stereo not given)
4. CN(C)c1nc(N)c(C(=O)N=C(N)N)nc1Cl
5. CC(=O)O[C@@H]1CC2C(C)(C)C(=O)C=C[C@]2(C)C2CC[C@@]3(C)[C@H](c4ccoc4)OC(=O)[C@H]4O[C@]43[C@@]21C (stereo not given in full)
6. CC1(C)O[C@H]2CC(=O)OC[C@]23[C@H]2CC[C@@]4(C)[C@H](c5ccoc5)OC(=O)[C@H]5O[C@]54[C@]2(C)C(=O)C[C@@H]13

# output
0.915
0.997
0.997
1
0.999
1.01
